Entries and their measured FMAT mDLL4 % inhibition follow.
# testTarget: T1, full length mouse DLL4 on overexpressing CHO or HEK293 cells (mouse, UniProt Q9JI71 27-686)
# T1 construct: whole, on cells; also called CHO-mDLL4; mDLL4
# T1 sequence (Q9JI71 27-686): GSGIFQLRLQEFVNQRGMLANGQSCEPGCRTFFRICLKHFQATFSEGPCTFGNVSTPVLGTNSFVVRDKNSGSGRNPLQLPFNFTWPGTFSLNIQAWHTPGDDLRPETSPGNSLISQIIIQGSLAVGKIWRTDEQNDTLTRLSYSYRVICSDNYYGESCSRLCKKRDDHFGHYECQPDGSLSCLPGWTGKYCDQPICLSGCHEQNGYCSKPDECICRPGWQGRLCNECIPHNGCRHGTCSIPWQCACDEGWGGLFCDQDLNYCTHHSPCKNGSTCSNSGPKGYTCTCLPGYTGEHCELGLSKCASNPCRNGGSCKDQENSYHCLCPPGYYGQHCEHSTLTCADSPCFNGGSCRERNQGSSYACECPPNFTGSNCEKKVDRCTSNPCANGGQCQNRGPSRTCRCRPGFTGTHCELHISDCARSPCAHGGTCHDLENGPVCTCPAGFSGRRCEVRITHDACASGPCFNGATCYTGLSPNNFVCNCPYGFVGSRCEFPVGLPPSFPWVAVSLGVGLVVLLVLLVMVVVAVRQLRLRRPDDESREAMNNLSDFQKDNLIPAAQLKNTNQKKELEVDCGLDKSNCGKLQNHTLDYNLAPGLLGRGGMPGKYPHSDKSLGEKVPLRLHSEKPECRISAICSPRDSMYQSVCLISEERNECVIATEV
# measurementDescription: FMAT, hNotch1/Fc on CHO-mDLL4, periplasmic extract
# Description: All calculations are based on the FL1 total signal which comprises the average of the fluorescence per well times the number of counts per well.
A number alone suffices; assume %.

FMAT mDLL4 % inhibition reported for this binder DLLBII102F08 (VHH, tested as periplasmic extract; also called DLLBII102F8; not shown: C-terminal c-myc tag and His6 tag) VHH: EVQLVESGGGLVQTGDSLRLSCAASGSTFSNYRMGWFRQGPGKEREFVAAIGRNGQNTYYTDSVKGRFTVTRDNAKNMVYLQMNSLKPEDSAVYTCAASLRGWDTTRIDYEYWGQGTQVTVSS : 75

FMAT mDLL4 % inhibition reported for this binder DLLBII115A05 (VHH, also called DLLBII115A5; 115A5; not shown: C-terminal c-myc tag and His6 tag) VHH: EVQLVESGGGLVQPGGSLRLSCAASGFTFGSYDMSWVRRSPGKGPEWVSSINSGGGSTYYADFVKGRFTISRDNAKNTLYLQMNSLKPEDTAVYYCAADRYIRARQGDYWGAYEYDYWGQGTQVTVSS : 84

FMAT mDLL4 % inhibition reported for this binder DLLBII104B05 (VHH, tested as periplasmic extract; also called DLLBII104B5; not shown: C-terminal c-myc tag and His6 tag) VHH: EVQLVESGGGSVQAGGSLRLSCAASGSISRIDVMAWYRQAPGKERELVASISSGGSTNYADSVKGRFTISREYFKNMMYLQMNSLKFEDTAVYYCNADSRRGGVGNFFRSWGQGTQVTVSS : 78

FMAT mDLL4 % inhibition reported for this binder DLLBII95F02 (VHH, tested as periplasmic extract; also called DLLBII95F2; not shown: C-terminal c-myc tag and His6 tag) VHH: EVQLVESGGGSVQAGGSLRLSCAASGRTFSSYAMGWFRQAPGKEREFVAAINWSGGYTYYADSVRGRFTISRDNAKNTVYLQMNSLKPEDTAVYYCAAPAPGSSGYEYDYWGQGTQVTVSS : 71
